Biological target: androgen receptor (AR) (Homo sapiens)
Assay: MDA-MB-453 Androgen Receptor Transactivation Assay
Conditions: MDA-MB-453 cells, PSA-Luc reporter, 3 nM DHT, 48 hour incubation

- Compound: "N#Cc1ccc(N2C[C@H]3[C@@H]4O[C@@H](C[C@H]4O)[C@H]3S2(=O)=O)cc1C(F)(F)F (racemic) [Example 10ii]"
  Unit Descriptor: "nM"
  IC50: 7500
- Compound: "N#Cc1ccc(N2C[C@H]3[C@H]4O[C@H]([C@@H]5O[C@@H]54)[C@H]3S2(=O)=O)cc1C(F)(F)F"
  Unit Descriptor: "nM"
  IC50: 2640
- Compound: "C[C@]12C=C[C@H](O1)[C@@H]1[C@H]2CN(c2ccc(C#N)c(C(F)(F)F)c2)S1(=O)=O (racemic) [Example 21i]"
  Unit Descriptor: "nM"
  IC50: 1160
- Compound: "N#Cc1ccc(N2C[C@H]3[C@H]([C@H]4O[C@@H]3C[C@H]4F)S2(=O)=O)cc1C(F)(F)F"
  Unit Descriptor: "nM"
  IC50: 144
- Compound: "COC(=O)N[C@H]1C[C@@H]2O[C@H]1[C@H]1CN(c3ccc(C#N)c(C(F)(F)F)c3)S(=O)(=O)[C@H]12 [Example 40i]"
  Unit Descriptor: "nM"
  IC50: 977
- Compound: "N#Cc1ccc(N2C[C@@H]3[C@@H]([C@@H]4C=C[C@H]3O4)S2(=O)=O)cc1C(F)(F)F (racemic)"
  Unit Descriptor: "nM"
  IC50: 108
